# Tested on: Saccharomyces cerevisiae
# protocol.details: protein stability index of tFT-peptide fusion (C-terminal peptide) (PSI (0-1 scale)); higher = more stable (slower turnover);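 note: PSI is a weighted mean of sequencing reads over stability bins, variants kept only with over 10 reads, mCherry proximal and sfGFP distal, peptide attached via GGGS linker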
# test.settings: genetic background: wild type; temperature: 30 C
measured.property: protein stability index
API doc: respond with a numeric literal and nothing else, no unit.

Ask: Report protein stability index for PPRPPRPPYPPP please.
Result: 0.609

Ask: Next up: VSGMRRRFGNRL
Result: 0.756

Ask: Next up: RNTLLFKRILHI
Result: 0.165

Ask: Next up: LVGLVCDFVFVL
Result: 0.589

Ask: Next up: LGLFECAFLDRS
Result: 0.736

Ask: Next up: GVLRMAPGRVMC
Result: 0.268

Ask: Next up: LYWAYLGASVLL
Result: 0.658

Ask: Next up: RTASRSVSTTQN
Result: 0.745

Ask: Next up: ASRFSLPLLSLL
Result: 0.71

Ask: Next up: VPDGVAGRRPDR
Result: 0.679

Ask: Next up: VEVKEKLKLWSH
Result: 0.691

Ask: Next up: IECLRVVRSRCG
Result: 0.672

Ask: Next up: KVSKHIKTNDSI
Result: 0.65

Ask: Next up: GAVTNHAMASRP
Result: 0.725

Ask: Next up: LGIVSLDWLWLR
Result: 0.513

Ask: Next up: RSPPPRAPPPSV
Result: 0.645

Ask: Next up: GLSSLVLRFFLP
Result: 0.663

Ask: Next up: HLSLFHIALPPP
Result: 0.689

Ask: Next up: FVAGFAGGAVGV
Result: 0.72

###

# System: Saccharomyces cerevisiae
# protocol.details: protein stability index of tFT-peptide fusion (C-terminal peptide) (PSI (0-1 scale)); higher = more stable (slower turnover)
# test.settings: genetic background: das1 deletion; temperature: 37 C
Classify by protein stability index. Ranges: bottom: < 0.5; middle: ≥ 0.5 and < 0.7; top: ≥ 0.7

Ask: Field: class (protein stability index) — entry: LPALPFPIPTFA
Result: bottom

Ask: Next up: CFCSFQFVRLWV
Result: middle

Ask: Next up: CFFLSFNVFRLF
Result: middle

Ask: Next up: RASLPSLFRSLL
Result: top

Ask: Next up: VFFSLSLILFPF
Result: middle

Ask: Next up: LPVSLWLVCSFF
Result: middle

Ask: Next up: PVLPPPLLLCPC
Result: bottom

Ask: Next up: IPGGRPLLVEVR
Result: middle

Ask: Next up: FERVEYEVLGIG
Result: bottom

Ask: Next up: ILVFHFWPFLVR
Result: middle

Ask: Next up: RGKVVRGLLFCA
Result: top

Ask: Next up: FLDYLLFIFFFF
Result: middle

###

Exercise: state measured protein stability index for each of the sequences provided.
# System: Saccharomyces cerevisiae
# protocol.details: protein stability index of tFT-peptide fusion (C-terminal peptide) (PSI (0-1 scale)); higher = more stable (slower turnover)
# test.settings: genetic background: wild type; temperature: 30 C
API doc: respond with a numeric literal and nothing else, no unit.

Ask: Which protein stability index is reported with Saccharomyces cerevisiae for this entry: RSRVLALSCRSA ?
Result: 0.641

Ask: Next up: PLHPPLSGPLPP
Result: 0.723

Ask: Next up: PQESRAWTLSSA
Result: 0.713

Ask: Next up: PFLGHCPPTPPP
Result: 0.732

Ask: Next up: VGKHNLYSKNWR
Result: 0.66

Ask: Next up: RVRRWGSSTLVG
Result: 0.676

Ask: Next up: GGCVGVLGGWGL
Result: 0.694

Ask: Next up: LGSCSLIYRKFS
Result: 0.204

Ask: Next up: IACISCLLCVVV
Result: 0.508

Ask: Next up: RLSIEVREWGDG
Result: 0.642

Ask: Next up: NMIIPEAVSLSL
Result: 0.672

Ask: Next up: CQVDGTMLCSEC
Result: 0.652

Ask: Next up: MPQSLKKMVFLA
Result: 0.152

Ask: Next up: GVQFSVKWVKLG
Result: 0.225

Ask: Next up: KKYNRNRIKKAR
Result: 0.7

Ask: Next up: VGFSLGGFLFLF
Result: 0.585

Ask: Next up: AGGRGVPSMGNG
Result: 0.644

Ask: Next up: IDVLTGTDAGPT
Result: 0.628

Ask: Next up: GGHGRREEKGQR
Result: 0.685
